target-desc: human CGT (Homo sapiens, UniProt Q16880)
Sequence (Q16880 21-541): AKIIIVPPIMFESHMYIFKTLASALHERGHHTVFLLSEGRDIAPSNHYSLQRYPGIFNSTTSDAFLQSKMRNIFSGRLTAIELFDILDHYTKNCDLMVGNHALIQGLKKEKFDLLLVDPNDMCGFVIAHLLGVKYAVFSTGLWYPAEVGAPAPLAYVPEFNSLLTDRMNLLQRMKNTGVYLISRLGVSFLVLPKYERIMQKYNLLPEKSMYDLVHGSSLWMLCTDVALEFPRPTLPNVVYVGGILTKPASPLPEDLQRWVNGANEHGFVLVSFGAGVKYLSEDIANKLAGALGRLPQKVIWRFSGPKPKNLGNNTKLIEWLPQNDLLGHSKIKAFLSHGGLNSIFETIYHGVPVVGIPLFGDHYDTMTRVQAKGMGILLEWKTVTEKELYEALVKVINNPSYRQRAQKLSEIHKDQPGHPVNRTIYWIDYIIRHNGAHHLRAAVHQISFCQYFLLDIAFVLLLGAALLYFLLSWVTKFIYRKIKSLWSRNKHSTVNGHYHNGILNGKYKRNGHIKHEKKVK
assay-summary: Assay 1: CGT Enzymatic Assay (RapidFire/MS/MS, 0.01% Tween 80)
Type: biochemical
test-parameters: Table 1, Compounds of Formula (I) and Formula (II); CGT enzymatic assay; read-out: IC50
pIC50: −log10 of the molar value.
test-readout: pIC50

Previously resolved entries follow.
- compound: "Cc1cccc(C2(C)C(O)N(c3ccc(Cl)cc3)C(=O)N2c2ccc(Cl)cc2)c1 (stereo not drawn)"
  test-readout: "pIC50"
  result: "> 6.00"
- compound: "O=C1N(c2ccc(Br)cc2)C(=O)C(O)(C(F)(F)F)N1c1ccc(Br)cc1 (stereo not drawn)"
  test-readout: "pIC50"
  result: "< 4.30"
- compound: "CCCC[C@H]1N(c2ccc(Cl)cc2)C(=O)N(c2ccc(Cl)cc2)C1(O)c1cccc(C#N)c1 (stereo partly drawn)"
  test-readout: "pIC50"
  result: "> 6.00"
- compound: "Cc1c(-c2cccc(OC(F)(F)F)c2)n(-c2ccc(Br)cc2)c(=O)n1-c1ccc(Br)cc1"
  test-readout: "pIC50"
  result: "5.00 to 6.00"
- compound: "O=C1N(c2ccc(Cl)cc2)[C@@H](C2CC2)C(O)(c2cccc(OC(F)F)c2)N1c1ccc(Cl)cc1 (stereo partly drawn)"
  test-readout: "pIC50"
  result: "> 6.00"
- compound: "CCc1cccc(C2(O)C(C)N(c3ccc(Cl)cc3)C(=O)N2c2ccc(Cl)cc2)c1 (stereo not drawn)"
  test-readout: "pIC50"
  result: "> 6.00"

Incoming: Consider the compound Cc1cc(C)cc(C2(O)CN(c3ccc(Br)cc3)C(=O)N2c2ccc(Br)cc2)c1 (stereo not drawn) and give its measured pIC50.
Outgoing: 4.30 to 5.00

Incoming: Please report the recorded pIC50 for C[C@H]1N(c2ccc(Cl)cc2)C(=O)N(c2ccc(Cl)cc2)C1(O)c1cccc(C(F)(F)F)c1 (stereo partly drawn) .
Outgoing: > 6.00

Incoming: What value of pIC50 has been reported for the following compound? CCCC[C@@H]1N(c2ccc(Cl)cc2)C(=O)N(c2ccc(Cl)cc2)C1(O)c1cccc(C#N)c1 (stereo partly drawn)
Outgoing: > 6.00

Incoming: Entry under review: C[C@@H]1N(c2ccc(Cl)cc2)C(=O)N(c2ccc(Cl)cc2)C1(O)c1cccc(C#N)c1 (single isomer, unassigned) . Reported pIC50?
Outgoing: > 6.00

Incoming: Recorded pIC50 of CC(C)c1cccc(C2(O)CN(c3ccc(Br)cc3)C(=O)N2c2ccc(Br)cc2)c1 (stereo not drawn) , please.
Outgoing: 5.00 to 6.00

Incoming: Which pIC50 reading was recorded for the compound CC1N(c2ccc(Cl)cc2)C(=O)N(c2ccc(Cl)cc2)C1(O)c1cccc(Br)c1 (stereo not drawn) ?
Outgoing: > 6.00

Incoming: pIC50 lookup needed for O=C1N(c2ccc(Br)cc2)CC(O)(c2cccc(C(F)(F)F)c2)N1c1ccc(Br)cc1 (stereo not drawn) , thanks.
Outgoing: > 6.00

Incoming: GET /values?readout=pIC50&item= N#Cc1cccc(C2(O)[C@@H](CC3CC3)N(c3ccc(Cl)cc3)C(=O)N2c2ccc(Cl)cc2)c1 (single isomer, unassigned)
Outgoing: > 6.00

Incoming: What value of measured pIC50 is listed for Cc1c(-c2ccccc2)n(-c2ccc(Br)cc2)c(=O)n1-c1ccc(Br)cc1 ?
Outgoing: > 6.00

====

target-desc: human CGT (Homo sapiens, UniProt Q16880)
assay-summary: Assay 1: CGT Enzymatic Assay (RapidFire/MS/MS, 0.01% Tween 80)
Type: biochemical
test-parameters: Table 1, Compounds of Formula (I) and Formula (II); CGT enzymatic assay; read-out: IC50
test-readout: IC50

Examples with their reported IC50 follow.
- compound: "C[C@@]1(c2ccccc2)N(c2ccc(Cl)cc2)C(=O)N(c2ccc(Cl)cc2)[C@]1(O)c1ccccc1 [Compound 121-1]"
  result: "10 to 50 µM"
- compound: "CCc1ccc(N2C(=O)N(c3ccc(CC)cc3)C(O)(c3cccc(C#N)c3)C2C)cc1 (centres unmarked) [Compound 104]"
  result: "< 1 µM"
- compound: "C[C@@]1(c2cccc(Cl)c2)C(O)N(c2ccc(Cl)cc2)C(=O)N1c1ccc(Cl)cc1 (single isomer, unassigned) [Compound 149-2]"
  result: "< 1 µM"
- compound: "CCC[C@@H]1N(c2ccc(Br)cc2)C(=O)N(c2ccc(Br)cc2)C1(O)c1cccc(CC)c1 (some centres unmarked) [Compound 88-1]"
  result: "< 1 µM"
- compound: "Cc1cccc(C2(O)CN(c3ccc(Br)cc3)C(=O)N2c2ccc(Br)cc2)c1 (centres unmarked) [Example 16]"
  result: "1 to 10 µM"

Incoming: Which measured IC50 value corresponds to CCC1(O)CN(c2ccc(Cl)cc2)C(=O)N1c1ccc(Cl)cc1 (centres unmarked) [Example 56] ?
Outgoing: > 50 µM

Incoming: Dear colleague, I am looking for the recorded IC50 of the following compound: O=C1N(c2cccc(Cl)c2)C(=O)C(O)(c2ccccc2)N1c1cccc(Cl)c1 (centres unmarked) [Example 162]
Outgoing: 10 to 50 µM

Incoming: Tell me the measured IC50 of CCC[C@H]1N(c2ccc(Br)cc2)C(=O)N(c2ccc(Br)cc2)C1(O)c1cccc(C)c1 (some centres unmarked) [Compound 96-2] , please.
Outgoing: < 1 µM

====

target-desc: UniProt Q16880
assay-summary: CGT Enzyme Assay (Biological Example 2, RapidFire/MS/MS method with 0.01% Tween 80 added)
Assay type: biochemical
test-parameters: enzymatic assay, CHO/CGT lysate
pIC50: −log10 of the molar value.
test-readout: pIC50

Consider the reported pIC50 for these compounds:
- compound: "O=C1N(c2ccc(Cl)cc2)C2CCCC2(c2cccc(O)c2)N1c1ccc(Cl)cc1 (stereo not drawn)"
  pIC50: "4.52 to 5.00"
- compound: "O=C1N(c2ccc(Cl)cc2)[C@@H]2CCC[C@]2(c2cccc(OC(F)(F)F)c2)N1c1ccc(Cl)cc1"
  pIC50: "4.52 to 5.00"
- compound: "Cc1ccc(N2C(=O)N(c3ccc(C#N)cc3)[C@H](c3cccc(OC(F)(F)F)c3)C2(C)C)cc1"
  pIC50: "> 6.00"
- compound: "CCC[C@]1(C)[C@@H](c2cccc(C#N)c2)N(c2ccc(Cl)cc2)C(=O)N1c1ccc(Cl)cc1"
  pIC50: "> 6.00"
- compound: "C[C@]1(C(F)(F)F)[C@@H](c2cccc(OC(F)(F)F)c2)N(c2ccc(C#N)cc2)C(=O)N1c1ccc(C#N)cc1"
  pIC50: "4.52 to 5.00"
- compound: "CC[C@@]1(C)[C@H](c2cccc(OC(F)(F)F)c2)N(c2ccc(C#N)cc2)C(=O)N1c1ccc(C#N)cc1"
  pIC50: "5.00 to 6.00"
- compound: "O=C1N(c2ccc(Cl)cc2)[C@@H](c2cccc(OC(F)(F)F)c2)C2(CCCC2)N1c1ccc(Cl)cc1"
  pIC50: "4.52 to 5.00"
- compound: "CCC1(CC)[C@H](c2cccc(OC(F)(F)F)c2)N(c2ccc(Cl)cc2)C(=O)N1c1ccc(Cl)cc1"
  pIC50: "5.00 to 6.00"
- compound: "Cc1ccc(N2C(=O)N(c3ccc(C)cc3)C(C)(C)[C@@H]2c2cccc(OC(F)(F)F)c2)cc1"
  pIC50: "> 6.00"
- compound: "CC1(C)[C@@H](c2cccc(OC(F)(F)F)c2)N(c2ccc(C#N)cc2)C(=O)N1c1ccc(Cl)cc1"
  pIC50: "4.52 to 5.00"

Incoming: // returns reported pIC50 for input Cc1ccc(N2C(=O)N(c3ccc(C#N)cc3)C3(COC3)[C@@H]2c2cccc(C#N)c2)cc1
Outgoing: > 6.00

Incoming: If you can, please state the reported pIC50 value of CC[C@@]1(C)[C@@H](c2cccc(OC(F)(F)F)c2)N(c2ccc(C#N)cc2)C(=O)N1c1ccc(C#N)cc1 .
Outgoing: 4.52 to 5.00

Incoming: Value lookup for pIC50; key = N#Cc1cccc([C@@H]2N(c3ccc(Cl)cc3)C(=O)N(c3ccc(Cl)cc3)C23COC3)c1
Outgoing: > 6.00

Incoming: What value of pIC50 has been reported for the following compound? CC1(C)[C@@H](c2cccc(OC(F)(F)F)c2)N(c2cccc(Cl)c2)C(=O)N1c1cccc(Cl)c1
Outgoing: 4.52 to 5.00

Incoming: Which pIC50 reading was recorded for the compound COC[C@]1(C)[C@H](c2cccc(C#N)c2)N(c2ccc(Cl)cc2)C(=O)N1c1ccc(Cl)cc1 ?
Outgoing: > 6.00

====

This section presents compounds with their documented IC50 values.
target-desc: human CGT (Homo sapiens)
assay-summary: Assay 1: CGT Enzymatic Assay (RapidFire/MS/MS, 0.01% Tween 80)
Assay type: biochemical
test-parameters: Table 1, Compounds of Formula (I) and Formula (II); CGT enzymatic assay; read-out: IC50

Incoming: Name the recorded IC50 for CCC1(O)CN(c2ccc(Br)cc2)C(=O)N1c1ccc(Br)cc1 (stereo not drawn) [Example 4] .
Outgoing: 10000 to 50000 nM

Incoming: Need IC50 of O=C1N(c2ccc(C(F)(F)F)cc2)CC(O)(c2ccccc2)N1c1ccc(C(F)(F)F)cc1 (stereo not drawn) [Example 15] , thanks.
Outgoing: > 50000 nM

Incoming: # get_value(readout='IC50', item= CCc1cccc(C2(O)[C@H](C)N(c3ccc(Br)cc3)C(=O)N2c2ccc(Br)cc2)c1 (stereo partly drawn) [Compound 68-1] )
Outgoing: < 1000 nM

Incoming: If you can, please state the reported IC50 value of O=C1N(c2ccc(Cl)cc2)CC(O)(c2cccc(F)c2)N1c1ccc(Cl)cc1 (stereo not drawn) [Compound 64] .
Outgoing: 1000 to 10000 nM

Incoming: Which IC50 is reported for this compound? N#Cc1cccc(C2(O)CN(c3ccc(Cl)cc3)C(=O)N2c2ccc(Cl)cc2)c1 (stereo not drawn) [Compound 63]
Outgoing: < 1000 nM

Incoming: So what does the record say about IC50 for CC[C@]1(C)C(c2cccc(OC(F)(F)F)c2)N(c2ccc(C#N)cc2)C(=O)N1c1ccc(C#N)cc1 (stereo partly drawn) [Example 51-1] ?
Outgoing: 1000 to 10000 nM

Incoming: Given the compound CC[C@@]1(C)N(c2ccc(Cl)cc2)C(=O)N(c2ccc(Cl)cc2)C1(O)c1cccc(OC(F)(F)F)c1 (single isomer, unassigned) [Example 163-1] , what is its reported IC50?
Outgoing: 1000 to 10000 nM

Incoming: Would you kindly share the measured IC50 for CCC1(O)[C@H](c2ccccc2)N(c2ccc(Br)cc2)C(=O)N1c1ccc(Br)cc1 (stereo partly drawn) [Example 45-1] ?
Outgoing: < 1000 nM

Incoming: Fill blank: measured IC50 of the compound O=c1n(-c2ccc(Cl)cc2)c(-c2cccc(OC(F)F)c2)c(C2CC2)n1-c1ccc(Cl)cc1 [Compound 70] is ____.
Outgoing: < 1000 nM

Incoming: Bench note: what IC50 did CCCCC1(O)CN(c2ccc(Br)cc2)C(=O)N1c1ccc(Br)cc1 (stereo not drawn) [Example 6] show?
Outgoing: > 50000 nM

Incoming: Report IC50 for CCC1N(c2ccc(Cl)cc2)C(=O)N(c2ccc(Cl)cc2)C1(O)c1cccc(OC(F)(F)F)c1 (stereo in doubt) [Compound 82-1] please.
Outgoing: < 1000 nM

Incoming: I'd like to know its IC50. The compound in question is O=C1N(c2ccc(Br)cc2)C(=O)C(O)(c2cccs2)N1c1ccc(Br)cc1 (stereo not drawn) [Example 205]
Outgoing: 50000 to 100000 nM

Incoming: Which IC50 reading was recorded for the compound O=C1N(c2ccc(Br)cc2)C(O)[C@](c2ccccc2)(C2CC2)N1c1ccc(Br)cc1 (stereo partly drawn) [Example 209-2] ?
Outgoing: < 1000 nM

Incoming: May I ask what IC50 has been recorded for Cc1csc(C2(O)[C@@H](C)N(c3ccc(Br)cc3)C(=O)N2c2ccc(Br)cc2)c1 (stereo partly drawn) [Compound 97-2] ?
Outgoing: 1000 to 10000 nM

Incoming: Requested field: IC50. Item: C[C@@]1(c2cccc(C(F)(F)F)c2)C(O)N(c2ccc(Br)cc2)C(=O)N1c1ccc(Br)cc1 (stereo partly drawn) [Example 219-2]
Outgoing: < 1000 nM

Incoming: Field request: IC50 | item: CCC1N(c2ccc(Cl)cc2)C(=O)N(c2ccc(Cl)cc2)C1(O)c1cccc(C#N)c1 (stereo not drawn) [Compound 106]
Outgoing: < 1000 nM

Incoming: GET /values?readout=IC50&item= CCc1cccc(C2(O)CN(c3ccc(Br)cc3)C(=O)N2c2ccc(Br)cc2)c1 (stereo not drawn) [Example 47]
Outgoing: 1000 to 10000 nM

Incoming: Look at this compound and give its reported IC50. CCC1(O)[C@@H](c2ccccc2)N(c2ccc(Br)cc2)C(=O)N1c1ccc(Br)cc1 (stereo partly drawn) [Example 45-2]
Outgoing: 10000 to 50000 nM

Incoming: Looking for the measured IC50 of CC[C@@H]1N(c2ccc(Cl)cc2)C(=O)N(c2ccc(Cl)cc2)C1(O)c1cccc(C)c1 (stereo partly drawn) [Compound 75-1] , can you help?
Outgoing: < 1000 nM

Incoming: // lookup IC50 for CCCC1N(c2ccc(Br)cc2)C(=O)N(c2ccc(Br)cc2)C1(O)c1cccc(CC)c1 (stereo not drawn) [Compound 88]
Outgoing: < 1000 nM

Incoming: Report IC50 for CC(C)[C@H]1N(c2ccc(C(F)(F)F)cc2)C(=O)N(c2ccc(C(F)(F)F)cc2)C1(O)c1cccc(OC(F)(F)F)c1 (single isomer, unassigned) [Example 196-2] please.
Outgoing: < 1000 nM
